The origin of these recorded values is patent US20230303495A9.

experiment: In vivo pharmacokinetics of rat, single intravenous injection or oral administration by gavage; parameters: species or system Male Sprague Dawley rats; settings: male, Sprague-Dawley, plasma, intravenous administration 1 mg/kg
The label depends only on AUC(0-inf): MET if it is at least 20000 ng·h/mL, NOT MET if it is smaller.

Quick check, AUC(0-inf) >= 20000 ng·h/mL? O=C(Nc1ccc[n+]([O-])c1)c1cc(Cl)c(C(F)(F)F)cc1Oc1ccc(OC(F)(F)F)cc1 [Embodiment A69] MET

Quick check, AUC(0-inf) >= 20000 ng·h/mL? O=C(Nc1ccc[n+]([O-])c1)c1c(Oc2ccc(OC(F)(F)F)cc2)cc(C(F)(F)F)c(Cl)c1F [Embodiment A68] MET

Quick check, AUC(0-inf) >= 20000 ng·h/mL? O=C(Nc1ccc[n+]([O-])c1)c1c(Oc2ccc(OC(F)(F)F)c(F)c2)cc(C(F)(F)F)c(Cl)c1F [Embodiment A84] NOT MET

Quick check, AUC(0-inf) >= 20000 ng·h/mL? Cc1cc(F)ccc1Oc1cc(C(F)(F)F)c(Cl)cc1C(=O)Nc1ccc[n+]([O-])c1 [Embodiment A103] NOT MET

Quick check, AUC(0-inf) >= 20000 ng·h/mL? O=C(Nc1cc[n+]([O-])nc1)c1c(Oc2ccc(OC(F)(F)F)c(F)c2)ccc(C(F)(F)F)c1F [Embodiment A56] NOT MET

Quick check, AUC(0-inf) >= 20000 ng·h/mL? O=C(Nc1ccc[n+]([O-])c1)c1cc(Cl)c(Cl)cc1Oc1ccc(OC(F)(F)F)cc1 [Embodiment A11] NOT MET

Quick check, AUC(0-inf) >= 20000 ng·h/mL? O=C(Nc1cc[n+](O)nc1)c1c(Oc2ccc(OC(F)(F)F)cc2)ccc(C(F)(F)F)c1F [Embodiment A46] NOT MET
